Just for reference, ChEMBL document CHEMBL2057191 is where these values come from.

# TARGET_UNDER_TEST: Melanin-concentrating hormone receptor 1 (Homo sapiens)
# Sequence (Q99705 whole entry): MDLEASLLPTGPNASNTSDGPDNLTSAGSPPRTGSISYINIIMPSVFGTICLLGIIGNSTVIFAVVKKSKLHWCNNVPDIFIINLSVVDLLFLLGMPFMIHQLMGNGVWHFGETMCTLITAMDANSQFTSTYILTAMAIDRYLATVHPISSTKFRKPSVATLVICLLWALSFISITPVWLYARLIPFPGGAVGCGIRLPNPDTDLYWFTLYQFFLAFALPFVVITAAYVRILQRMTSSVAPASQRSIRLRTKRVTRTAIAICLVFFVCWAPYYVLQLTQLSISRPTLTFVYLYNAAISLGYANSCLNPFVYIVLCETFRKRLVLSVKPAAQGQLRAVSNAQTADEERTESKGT
# ASSAY_NOTES: Displacement of [125I]MCH from human MCHR1 expressed in CHO cells after 60 mins by liquid scintillation counting
# Format: cell-based
Assign pIC50 to each entry below.
Answers are plain numbers, as −log10 of the molar value.

Reference set (3 entries):
Cc1c(NC(=O)c2ccc(OCC3CC3)cc2)ccc2cc(C(C)N3CCCCCC3)cnc12 (racemic)    8.70
Cc1c(NC(=O)c2ccc(OCC3CC3)cc2)ccc2cc(CN3CCCC3)cnc12    8.74
Cc1c(NC(=O)c2ccc(OCC3CC3)cc2)ccc2cc([C@@H](C)N3CCCC3)cnc12    8.96

Turning to the following molecule.
Entry Cc1c(NC(=O)c2ccc(OCC3CC3)cc2)ccc2cc(CN3CCCC3C)cnc12 (racemic) , pIC50 reported as 8.60

---

# TARGET_UNDER_TEST: Melanin-concentrating hormone receptor 1 (Rattus norvegicus, UniProt P97639)
# Sequence (P97639 whole entry): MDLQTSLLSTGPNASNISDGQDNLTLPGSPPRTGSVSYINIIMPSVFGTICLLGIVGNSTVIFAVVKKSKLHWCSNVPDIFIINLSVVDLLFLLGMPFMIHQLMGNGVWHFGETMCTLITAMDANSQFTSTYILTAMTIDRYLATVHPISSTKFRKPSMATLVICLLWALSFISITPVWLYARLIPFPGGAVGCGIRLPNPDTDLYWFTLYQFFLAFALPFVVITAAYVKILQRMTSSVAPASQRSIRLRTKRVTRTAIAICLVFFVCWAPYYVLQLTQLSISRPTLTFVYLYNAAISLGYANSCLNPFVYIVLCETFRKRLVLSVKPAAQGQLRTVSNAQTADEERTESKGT
# ASSAY_NOTES: Displacement of [125I]MCH from rat MCHR1 expressed in CHO cells after 60 mins by liquid scintillation counting
I'd appreciate it if you could supply pIC50 values for the items below.
Numbers only, as −log10 of the molar value.

Reference set, count: 3
Cc1c(NC(=O)c2ccc(OCC3CC3)cc2)ccc2cc(CN3CCCC3C)cnc12 (racemic)    8.17
Cc1c(NC(=O)c2ccc(OCC3CC3)cc2)ccc2cc(C(C)N3CCCC3)cnc12 (racemic)    8.38
Cc1c(NC(=O)c2ccc(OCC3CC3)cc2)ccc2cc(CN3CCCC3)cnc12    8.80

The observed pIC50 for Cc1c(NC(=O)c2ccc(OCC(C)C)cc2)ccc2cc(CN3CCCC3)cnc12 when tested with Melanin-concentrating hormone receptor 1 (Rattus norvegicus, UniProt P97639) stands at 8.17

---

# ASSAY_NOTES: Total clearance in Sprague-Dawley rat plasma at 1 mg/kg, iv
# Type: ADME, organism-based
# Set-up: dose 1 mg/kg, route intravenous
METRIC_NAME: clearance

So, CC(=O)NCCN[C@H](C)c1cnc2c(C)c(NC(=O)c3ccc(OCC4CC4)cc3)ccc2c1 ? Its clearance was 11.5 mL/min/kg

---

# ASSAY_NOTES: Lipophilicity, log D of the compound at pH 7.4
# Assay type: physicochemical
# RUN_PARAMETERS: buffer
METRIC_NAME: logD
Answers are plain numbers.

For each of the compounds below, note its logD.
1. Cc1c(NC(=O)c2ccc(OCC(C)C)cc2)ccc2cc(CN3CCCC3)cnc12
2. Cc1c(NC(=O)c2ccc(OCC3CC3)cc2)ccc2cc([C@@H](C)N3CCCC3)cnc12
3. Cc1c(NC(=O)c2ccc(OCC3CC3)cc2)ccc2cc(C(C)NCC(C)(C)O)cnc12 (racemic)
4. Cc1c(NC(=O)c2ccc(OCC3CC3)cc2)ccc2cc(C(C)N3CCCCCC3)cnc12 (racemic)

1. 3.35
2. 2.99
3. 2.67
4. 3.91

---

# ASSAY_NOTES: Cmax in Sprague-Dawley rat plasma at 3 mg/kg, po
# Assay type: ADME, organism-based
# Design: dose 3 mg/kg, route oral
METRIC_NAME: Cmax (ng/mL)
Numbers only, in ng/mL.

The recorded Cmax for CC(=O)NCCN[C@H](C)c1cnc2c(C)c(NC(=O)c3ccc(OCC4CC4)cc3)ccc2c1 is 274
